Where these numbers come from: patent US10519152B2

- Target Of Assay: Estrogen Receptor (ERα) in MCF-7 human ductal carcinoma breast cell line (Homo sapiens, UniProt P03372)
- Construct: endogenous in cells; host or cells: MCF-7
- Sequence (P03372 1-595): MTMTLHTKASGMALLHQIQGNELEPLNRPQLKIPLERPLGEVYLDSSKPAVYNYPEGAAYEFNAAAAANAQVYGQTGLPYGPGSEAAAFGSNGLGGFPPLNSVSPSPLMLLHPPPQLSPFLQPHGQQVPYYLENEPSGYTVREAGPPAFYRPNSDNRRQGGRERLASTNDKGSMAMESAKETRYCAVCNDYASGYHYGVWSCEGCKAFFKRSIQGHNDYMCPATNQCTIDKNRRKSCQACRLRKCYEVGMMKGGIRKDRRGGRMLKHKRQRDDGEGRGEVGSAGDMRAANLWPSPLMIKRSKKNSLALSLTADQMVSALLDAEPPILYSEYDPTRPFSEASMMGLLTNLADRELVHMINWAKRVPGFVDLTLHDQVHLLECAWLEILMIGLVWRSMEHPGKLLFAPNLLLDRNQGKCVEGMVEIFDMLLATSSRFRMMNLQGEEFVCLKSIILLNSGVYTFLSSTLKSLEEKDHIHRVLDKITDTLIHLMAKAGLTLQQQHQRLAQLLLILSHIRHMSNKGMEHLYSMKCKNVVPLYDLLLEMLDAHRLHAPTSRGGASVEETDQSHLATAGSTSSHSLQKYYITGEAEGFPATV
- Protocol Summary: MCF-7 ER degradation assay (cell based immuno-fluorescence)
- Run Conditions: MCF-7 cells, 0.3 μM; ER degradation by fulvestrant at 0.3 μM is defined as 100%
Metric Name: ER degradation ≥ 90% at 0.3 μM

Some molecules with known ER degradation ≥ 90% at 0.3 μM results, for comparison:
• Cc1ncsc1-c1ccc([C@@H](CN)NC(=O)[C@@H]2C[C@@H](O)CN2C(=O)[C@@H](NC(=O)COCCOCCOCCOc2cc(F)c([C@@H]3c4[nH]c5ccccc5c4C[C@@H](C)N3CC(C)(C)F)c(F)c2)C(C)(C)C)cc1 = •
• Cc1ncsc1-c1ccc(CNC(=O)[C@@H]2C[C@@H](O)CN2C(=O)[C@@H](NC(=O)COc2cccc(COc3cc(F)c([C@@H]4c5[nH]c6ccccc6c5C[C@@H](C)N4CC(C)(C)F)c(F)c3)c2)C(C)(C)C)cc1 = •
• Cc1ncsc1-c1ccc(CNC(=O)[C@@H]2C[C@@H](O)CN2C(=O)[C@@H](NC(=O)COCCCCCN(C)CCOc2cc(F)c([C@@H]3c4[nH]c5ccccc5c4C[C@@H](C)N3CC(C)(C)F)c(F)c2)C(C)(C)C)cc1 = •
• Cc1ncsc1-c1ccc(CNC(=O)[C@@H]2C[C@@H](O)CN2C(=O)[C@@H](NC(=O)COCCCCOCCOc2cc(F)c([C@@H]3c4[nH]c5ccccc5c4C[C@@H](C)N3CC(C)(C)F)c(F)c2)C(C)(C)C)cc1 = ••
• Cc1ncsc1-c1ccc(CNC(=O)[C@@H]2C[C@@H](O)CN2C(=O)[C@@H](NC(=O)COC[C@@H]2CC2COCCOc2cc(F)c([C@@H]3c4[nH]c5ccccc5c4C[C@@H](C)N3CC(C)(C)F)c(F)c2)C(C)(C)C)cc1 (single isomer, unassigned) [Example 123] = •

stdin: Request the reported ER degradation ≥ 90% at 0.3 μM associated with `Cc1ncsc1-c1ccc(CNC(=O)[C@@H]2C[C@@H](O)CN2C(=O)[C@@H](NC(=O)COCCCCCOCCOc2cc(F)c([C@@H]3c4[nH]c5ccccc5c4C[C@@H](C)N3CC(C)(C)F)c(F)c2)C(C)(C)C)cc1`
stdout: ••

stdin: # get_value(readout='ER degradation ≥ 90% at 0.3 μM', item= `Cc1ncsc1-c1ccc(CNC(=O)[C@@H]2C[C@@H](O)CN2C(=O)[C@@H](NC(=O)COCC(F)(F)COCCCCCOc2cc(F)c([C@@H]3c4[nH]c5ccccc5c4C[C@@H](C)N3CC(C)(C)F)c(F)c2)C(C)(C)C)cc1` )
stdout: •

stdin: ER degradation ≥ 90% at 0.3 μM for `Cc1ncsc1-c1ccc(CNC(=O)[C@@H]2C[C@@H](O)CN2C(=O)[C@@H](NC(=O)COCCOCCCCCOc2cc(F)c([C@@H]3c4[nH]c5ccccc5c4C[C@@H](C)N3CC(F)F)c(F)c2)C(C)(C)C)cc1` ?
stdout: ••
